Test system: SNB-75 CNS
Assay: NCI tumour cell line growth inhibition, 48 h
Binary classification by TGI, with 9 µM as an inclusive lower bound for Satisfied; all other cases are Not satisfied.

# compound, assigned_category
records = [
    ("COc1cc(C(=O)NO)ccc1O", "Satisfied"),
    ("O=C(O)CC(O)(c1ccccc1C(=O)O)c1cccc2ccccc12 (stereo unspecified)", "Satisfied"),
]

Ask: Can O=C1NC(N/N=C/c2c[nH]c3ccccc23)=N/C1=C\c1cccs1 be said to have TGI at or above 9 µM?
Result: Satisfied

Ask: Is the recorded value of TGI equal to or greater than 9 µM for this compound? Nc1cc2c([nH]c[n+]2CC#CCCl)c(SCC#CCCl)n1
Result: Not satisfied

Ask: Please check the record O=C(O/N=C1/CCCC/C1=C\c1ccccc1)c1ccc(Cl)c(Cl)c1 and state if its TGI is at or above 9 µM.
Result: Satisfied

====

System: OVCAR-4 ovarian
Assay: NCI tumour cell line growth inhibition, 48 h
quantity_measured: TGI

# compound, TGI
measured = [
    ("FC(F)(F)c1ccc(-c2cnc(Cl)nc2NC2CCCCCC2)cc1", "> 100 µM"),
    ("COc1ccc(C2N(c3ccc(F)c([N+](=O)[O-])c3)C(=O)N3C(c4ccc(OC)cc4)N(c4ccc(F)c([N+](=O)[O-])c4)C(=O)N23)cc1 (configuration not stated)", "> 100 µM"),
    ("CC[C@@]1(O)C[C@H](OC2CC(N(C)C)C(OC3CC(O)C(OC4CC(O)C(O)C(C)O4)C(C)O3)C(C)O2)c2c(cc3c(c2O)C(=O)c2c(O)ccc(O)c2C3=O)[C@H]1C(=O)OC (some centres not stated)", "0.564 µM"),
]

Ask: Please give the measured TGI for this compound: COc1ccc(/C=C(\C#N)c2nc3ccccc3c(=O)[nH]2)cc1
Result: 70.3 µM

Ask: Give its TGI value. Item: Cc1cc(OCC(O)CO)ccc1-c1ccccc1 (configuration not stated)
Result: > 100 µM

Ask: Look at this compound and give its reported TGI. O=C(CNc1cccc(Cl)c1)Nn1c(-c2ccccc2)nc2ccccc2c1=O
Result: 19.3 µM

Ask: So what's the measured TGI for this one? CCOC(=O)NC(Nc1ncn(C(NC(=O)OCC)(C(F)(F)F)C(F)(F)F)n1)(C(F)(F)F)C(F)(F)F
Result: > 100 µM

Ask: Param item = COc1ccc(=[O+]C)c2nssc1-2 ; retrieve measured TGI.
Result: > 100 µM

Ask: Item under review: COc1ccc(NCc2cc(OC)c(OC)c(OC)c2)cc1 . Reported TGI?
Result: > 100 µM

Ask: # TGI lookup, item CCN(CC)CCC(=O)NC1c2ccccc2Oc2c(C)cccc21 (configuration not stated)
Result: > 100 µM

Ask: // lookup TGI for CN(C)C=Nc1ccc2[nH]c3ccccc3c2c1
Result: > 100 µM

Ask: Could you tell me which TGI is on file for O=[N+]([O-])O ?
Result: > 100 µM

Ask: Would you kindly share the measured TGI for COc1ccc2c(c1)[n+]([O-])c(-c1c(Cl)cccc1Cl)c(N)[n+]2[O-] ?
Result: > 100 µM

Ask: Give the measured TGI of CC(C)(C)c1ccc(C(=O)Nc2sc3c(c2C#N)CCC(=O)C3)cc1 .
Result: 0.687 µM

Ask: What TGI value was documented for this compound, CCCCNc1nc2nc[nH]c2c(=O)[nH]1 ?
Result: > 100 µM

Ask: Which TGI value belongs to Cc1ccc(/C=N/Nc2ccccn2)s1 ?
Result: > 100 µM

Ask: Tell me the measured TGI of NC1(C(=O)O)CCCC1C(=O)O (configuration not stated) , please.
Result: > 100 µM

Ask: Tell me the measured TGI of COc1ccc(N2C(=O)C3CC(c4ccc(C)cc4)c4c([nH]c5ccccc45)C3C2=O)cc1 (configuration not stated) , please.
Result: 27.5 µM

Ask: Requested field: TGI. Item: COc1cc(Br)cc2cc(C3=CSC4=NCCN34)c(=O)oc12
Result: 37.2 µM

Ask: What measured TGI goes with C/C=C/[C@@H]1[C@H]2C(=O)[C@]3(Cl)[C@@H](/C=C/C)[C@@H]3C(=O)[C@@]12Cl ?
Result: > 100 µM

Ask: For the compound shown here, CS(=O)(=O)N1CC(CI)c2ccc(O)cc21 (configuration not stated) , give the reported TGI.
Result: 5.95 µM

Ask: Given the compound O=C1Cc2c([nH]c3ccccc23)C2(CC3CCCCN13)OCCO2 (configuration not stated) , what is its reported TGI?
Result: > 100 µM
